This collection of values is drawn from BigSolDB 2.1.

test-conditions: in ethyl acetate, 293.15 K
property-label: solubility (mole fraction)

[
  {
    "chemical-structure": "O=C(O)Cc1c[nH]c2ccccc12",
    "reading": "4.09e-05"
  }
]

----------
test-conditions: in acetonitrile, 318.15 K
property-label: solubility (mole fraction)

[
  {
    "chemical-structure": "O=C(O)Cc1c[nH]c2ccccc12",
    "reading": "1.2e-05"
  }
]

----------
test-conditions: in acetone, 303.15 K
property-label: solubility (mole fraction)

[
  {
    "chemical-structure": "O=C(O)Cc1c[nH]c2ccccc12",
    "property-label": "solubility (mole fraction)",
    "reading": "3.26e-05"
  }
]

----------
test-conditions: in n-propanol, 288.15 K
property-label: solubility (mole fraction)

[
  {
    "chemical-structure": "O=C(O)Cc1c[nH]c2ccccc12",
    "reading": "1.65e-05"
  }
]

----------
test-conditions: in acetone, 288.15 K

[
  {
    "chemical-structure": "O=C(O)Cc1c[nH]c2ccccc12",
    "solubility (mole fraction)": "2.73e-05"
  }
]

----------
test-conditions: in isopropanol, 323.15 K

[
  {
    "chemical-structure": "O=C(O)Cc1c[nH]c2ccccc12",
    "solubility (mole fraction)": "3.88e-05"
  }
]

----------
test-conditions: in acetone, 283.15 K

[
  {
    "chemical-structure": "O=C(O)Cc1c[nH]c2ccccc12",
    "solubility (mole fraction)": "2.6e-05"
  }
]

----------
test-conditions: in n-propanol, 323.15 K

[
  {
    "chemical-structure": "O=C(O)Cc1c[nH]c2ccccc12",
    "solubility (mole fraction)": "2.85e-05"
  }
]

----------
test-conditions: in methanol, 318.15 K

[
  {
    "chemical-structure": "O=C(O)Cc1c[nH]c2ccccc12",
    "solubility (mole fraction)": "1.83e-05"
  }
]

----------
test-conditions: in DMF, 308.15 K
property-label: solubility (mole fraction)

[
  {
    "chemical-structure": "O=C(O)Cc1c[nH]c2ccccc12",
    "reading": "4.16e-05"
  }
]

----------
test-conditions: in chloroform, 278.15 K

[
  {
    "chemical-structure": "O=C(O)Cc1c[nH]c2ccccc12",
    "solubility (mole fraction)": "2.88e-06"
  }
]

----------
test-conditions: in acetone, 278.15 K

[
  {
    "chemical-structure": "O=C(O)Cc1c[nH]c2ccccc12",
    "solubility (mole fraction)": "2.49e-05"
  }
]

----------
test-conditions: in n-butanol, 298.15 K

[
  {
    "chemical-structure": "O=C(O)Cc1c[nH]c2ccccc12",
    "solubility (mole fraction)": "3.39e-05"
  }
]

----------
test-conditions: in DMSO, 298.15 K

[
  {
    "chemical-structure": "O=C(O)Cc1c[nH]c2ccccc12",
    "solubility (mole fraction)": "3.95e-05"
  }
]

----------
test-conditions: in n-butanol, 303.15 K

[
  {
    "chemical-structure": "O=C(O)Cc1c[nH]c2ccccc12",
    "solubility (mole fraction)": "3.6e-05"
  }
]

----------
test-conditions: in ethanol, 293.15 K
property-label: solubility (mole fraction)

[
  {
    "chemical-structure": "O=C(O)Cc1c[nH]c2ccccc12",
    "property-label": "solubility (mole fraction)",
    "reading": "1.47e-05"
  }
]

----------
test-conditions: in DMSO, 318.15 K
property-label: solubility (mole fraction)

[
  {
    "chemical-structure": "O=C(O)Cc1c[nH]c2ccccc12",
    "reading": "5.12e-05"
  }
]

----------
test-conditions: in DMSO, 308.15 K

[
  {
    "chemical-structure": "O=C(O)Cc1c[nH]c2ccccc12",
    "solubility (mole fraction)": "4.45e-05"
  }
]

----------
test-conditions: in ethanol, 308.15 K
property-label: solubility (mole fraction)

[
  {
    "chemical-structure": "O=C(O)Cc1c[nH]c2ccccc12",
    "property-label": "solubility (mole fraction)",
    "reading": "1.86e-05"
  }
]

----------
test-conditions: in DMF, 298.15 K
property-label: solubility (mole fraction)

[
  {
    "chemical-structure": "O=C(O)Cc1c[nH]c2ccccc12",
    "property-label": "solubility (mole fraction)",
    "reading": "3.67e-05"
  }
]

----------
test-conditions: in acetonitrile, 323.15 K

[
  {
    "chemical-structure": "O=C(O)Cc1c[nH]c2ccccc12",
    "solubility (mole fraction)": "1.3e-05"
  }
]

----------
test-conditions: in acetonitrile, 278.15 K

[
  {
    "chemical-structure": "O=C(O)Cc1c[nH]c2ccccc12",
    "solubility (mole fraction)": "6.51e-06"
  }
]

----------
test-conditions: in acetonitrile, 288.15 K

[
  {
    "chemical-structure": "O=C(O)Cc1c[nH]c2ccccc12",
    "solubility (mole fraction)": "7.47e-06"
  }
]

----------
test-conditions: in acetonitrile, 283.15 K

[
  {
    "chemical-structure": "O=C(O)Cc1c[nH]c2ccccc12",
    "solubility (mole fraction)": "6.98e-06"
  }
]

----------
test-conditions: in 1,4-dioxane, 298.15 K
property-label: solubility (mole fraction)

[
  {
    "chemical-structure": "O=C(O)Cc1c[nH]c2ccccc12",
    "reading": "2.35e-05"
  }
]

----------
test-conditions: in ethyl acetate, 278.15 K
property-label: solubility (mole fraction)

[
  {
    "chemical-structure": "O=C(O)Cc1c[nH]c2ccccc12",
    "property-label": "solubility (mole fraction)",
    "reading": "3.44e-05"
  }
]

----------
test-conditions: in chloroform, 283.15 K
property-label: solubility (mole fraction)

[
  {
    "chemical-structure": "O=C(O)Cc1c[nH]c2ccccc12",
    "property-label": "solubility (mole fraction)",
    "reading": "2.99e-06"
  }
]

----------
test-conditions: in DMF, 283.15 K

[
  {
    "chemical-structure": "O=C(O)Cc1c[nH]c2ccccc12",
    "solubility (mole fraction)": "3.12e-05"
  }
]

----------
test-conditions: in n-propanol, 308.15 K

[
  {
    "chemical-structure": "O=C(O)Cc1c[nH]c2ccccc12",
    "solubility (mole fraction)": "2.24e-05"
  }
]

----------
test-conditions: in ethanol, 313.15 K
property-label: solubility (mole fraction)

[
  {
    "chemical-structure": "O=C(O)Cc1c[nH]c2ccccc12",
    "property-label": "solubility (mole fraction)",
    "reading": "2.03e-05"
  }
]

----------
test-conditions: in chloroform, 323.15 K

[
  {
    "chemical-structure": "O=C(O)Cc1c[nH]c2ccccc12",
    "solubility (mole fraction)": "4.61e-06"
  }
]

----------
test-conditions: in acetone, 323.15 K

[
  {
    "chemical-structure": "O=C(O)Cc1c[nH]c2ccccc12",
    "solubility (mole fraction)": "4.25e-05"
  }
]

----------
test-conditions: in DMSO, 303.15 K

[
  {
    "chemical-structure": "O=C(O)Cc1c[nH]c2ccccc12",
    "solubility (mole fraction)": "4.2e-05"
  }
]

----------
test-conditions: in ethyl acetate, 303.15 K
property-label: solubility (mole fraction)

[
  {
    "chemical-structure": "O=C(O)Cc1c[nH]c2ccccc12",
    "reading": "4.58e-05"
  }
]

----------
test-conditions: in DMF, 288.15 K

[
  {
    "chemical-structure": "O=C(O)Cc1c[nH]c2ccccc12",
    "solubility (mole fraction)": "3.29e-05"
  }
]

----------
test-conditions: in acetone, 313.15 K

[
  {
    "chemical-structure": "O=C(O)Cc1c[nH]c2ccccc12",
    "solubility (mole fraction)": "3.73e-05"
  }
]

----------
test-conditions: in methanol, 323.15 K

[
  {
    "chemical-structure": "O=C(O)Cc1c[nH]c2ccccc12",
    "solubility (mole fraction)": "1.99e-05"
  }
]

----------
test-conditions: in DMF, 313.15 K

[
  {
    "chemical-structure": "O=C(O)Cc1c[nH]c2ccccc12",
    "solubility (mole fraction)": "4.45e-05"
  }
]

----------
test-conditions: in acetonitrile, 308.15 K

[
  {
    "chemical-structure": "O=C(O)Cc1c[nH]c2ccccc12",
    "solubility (mole fraction)": "1.01e-05"
  }
]

----------
test-conditions: in DMF, 293.15 K
property-label: solubility (mole fraction)

[
  {
    "chemical-structure": "O=C(O)Cc1c[nH]c2ccccc12",
    "reading": "3.47e-05"
  }
]

----------
test-conditions: in isopropanol, 318.15 K

[
  {
    "chemical-structure": "O=C(O)Cc1c[nH]c2ccccc12",
    "solubility (mole fraction)": "3.58e-05"
  }
]
